- System: chimeric Caspase-9 polypeptide
- Sequence (P62942 2-108 F37V limits assumed): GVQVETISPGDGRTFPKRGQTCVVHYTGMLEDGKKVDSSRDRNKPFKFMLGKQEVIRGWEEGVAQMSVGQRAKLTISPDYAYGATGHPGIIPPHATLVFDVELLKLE
- assay_text: Caspase-9 mutant classes and basal activity (Table 5)
- Type: cell-based
- condition_context: Caspase-9 mutant class; basal (ligand-independent) signaling compared with unmodified chimeric Caspase-9
endpoint_label: Basal Activity

D330A-S183A (protein) GFGDVGALESLRGNADLAYILSMEPCGHCLIINNVNFCRESGLRTRTGANIDCEKLRRRFSSLHFMVEVKGDLTAKKMVLALLELARQDHGALDCCVVVILSHGCQASHLQFPGAVYGTDGCPVSVEKIVNIFNGTSCPSLGGKPKLFFIQACGGEQKDHGFEVASTSPEDESPGSNPEPDATPFQEGLRTFDQLAAISSLPTPSDIFVSYSTFPGFVSWRDPKSGSWYVETLDDIFEQWAHSEDLQSLLLRVANAVSVKGIYKQMPGCFNFLRKKLFFKTSASRA    Decreased
D330A (protein) GFGDVGALESLRGNADLAYILSMEPCGHCLIINNVNFCRESGLRTRTGSNIDCEKLRRRFSSLHFMVEVKGDLTAKKMVLALLELARQDHGALDCCVVVILSHGCQASHLQFPGAVYGTDGCPVSVEKIVNIFNGTSCPSLGGKPKLFFIQACGGEQKDHGFEVASTSPEDESPGSNPEPDATPFQEGLRTFDQLAAISSLPTPSDIFVSYSTFPGFVSWRDPKSGSWYVETLDDIFEQWAHSEDLQSLLLRVANAVSVKGIYKQMPGCFNFLRKKLFFKTSASRA    Decreased
S144D (protein) GFGDVGALEDLRGNADLAYILSMEPCGHCLIINNVNFCRESGLRTRTGSNIDCEKLRRRFSSLHFMVEVKGDLTAKKMVLALLELARQDHGALDCCVVVILSHGCQASHLQFPGAVYGTDGCPVSVEKIVNIFNGTSCPSLGGKPKLFFIQACGGEQKDHGFEVASTSPEDESPGSNPEPDATPFQEGLRTFDQLDAISSLPTPSDIFVSYSTFPGFVSWRDPKSGSWYVETLDDIFEQWAHSEDLQSLLLRVANAVSVKGIYKQMPGCFNFLRKKLFFKTSASRA    Decreased

Value source: patent US20210147507A1
